System: OVCAR-5 ovarian
Test: NCI tumour cell line growth inhibition, 48 h
Below, each of the compounds is paired with its reported TGI value.

Would you please look over these solved cases?
{"columns": ["compound", "result"],
 "data": [
  ["COC(=O)C1=C(c2cc(OC)c(OC)c(OC)c2)OC(c2cc(OC)c(OC)c(OC)c2)C1 (stereo not given)", "> 100 µM"],
  ["COc1ccc(C(=O)C(CN(C)C)c2ccccc2)cc1 (stereo not given)", "10 µM"],
  ["COc1ccc(CN[C@H]2CCc3cc(OC)c(OC)c(OC)c3-c3ccc(SC)c(=O)cc32)c(OC)c1OC", "> 100 µM"],
  ["BrCC[N+]12CCCN1CCC2", "40 µM"],
  ["Clc1ccc(C2=NNC(c3cccc(Cl)c3)C2)cc1 (stereo not given)", "> 100 µM"]
]}

**Q:** Fill in reported TGI for this entry: O=C1CCC(=O)C(C(=O)CCC(=O)Nc2ccc(Cl)cc2)C1 (stereo not given)
**A:** > 100 µM

---

Tested on: SR leukemia
Test: NCI tumour cell line growth inhibition, 48 h; in the data active = GI50 below about 0.43 µM; inactive = the rest
Just give me one of these, please: yes = active, no = inactive

Answered examples (4):
{"columns": ["smi", "assigned category"],
 "data": [
  ["c1ccc2c(Nc3ccc4c(c3)OCO4)c3ccoc3nc2c1", "no"],
  ["COc1ccc(Nc2ccnc3cc(Cl)ccc23)cc1CN(CCCl)CCCl", "yes"],
  ["C[C@@H]1CC[C@H]2C(CN(C)CC3=C(C(F)(F)F)O[C@@H]4O[C@@]5(C)CC[C@H]6[C@H](C)CC[C@@H]3[C@@]46OO5)=C(C(F)(F)F)O[C@@H]3O[C@@]4(C)CC[C@@H]1[C@]32OO4", "no"],
  ["CCc1cc(Nc2nccc(-c3c(-c4ccc(OC)c(C(=O)Nc5c(F)cccc5F)c4)nc4ccccn34)n2)c(OC)cc1N1CCC(N2CCN(S(C)(=O)=O)CC2)CC1", "no"]
]}

**Q:** Hi, sorry to bother you, what did the test record for `CCN(CC)CCn1nc2c3c(cccc3c1=O)-c1ccccc1-2` ?
**A:** no

**Q:** Please share the test call associated with `Cn1cc(C2=C(c3cn(C)c4cc(Cl)ccc34)C(=O)NC2=O)c2ccccc21` .
**A:** yes

**Q:** What classification did `O=C(Nc1ccc(I)cc1F)c1cc(F)ccc1O` end up with in this test?
**A:** yes

---

Test system: MOLT-4 leukemia
Experiment: NCI tumour cell line growth inhibition, 48 h
measure name: GI50

**Q:** Dear colleague, please send me the reported GI50 for `CCN(CC)Cc1cc(Nc2c3ccc(Cl)cc3nc3c(C)cccc23)ccc1O` when you can.
**A:** 855 nM

**Q:** Give a short answer stating reported GI50 for O=C(c1nc2ccccc2[nH]1)C1C(c2cccc([N+](=O)[O-])c2)C2CC3CCCCC3N2[C@@]12C(=O)Nc1cc(Cl)ccc12 (some centres undefined) .
**A:** 2380 nM

**Q:** Consider the compound `CCN(CC)CCn1nc2c3c(cccc3c1=O)-c1ccccc1-2` . State its measured GI50.
**A:** 1440 nM

**Q:** For `CCc1cc(Nc2nccc(-c3c(-c4ccc(OC)c(C(=O)Nc5c(F)cccc5F)c4)nc4ccccn34)n2)c(OC)cc1N1CCC(N2CCN(S(C)(=O)=O)CC2)CC1` , write its GI50.
**A:** > 100000 nM

---

What follows is a record of GI50 for U251 CNS.

The following compounds have reported results that may help.
{"columns": ["smi", "measure name", "result"],
 "data": [
  ["CC(=O)O[C@H]1Cc2c([nH]c3ccccc23)[C@@H](c2ccc(Cl)cc2)N1C(=O)CCNC(C)(C)C", "GI50", "4.33 µM"],
  ["Cc1c(-c2ccnc(N)n2)c2c(n1-c1ccccc1)C(=O)c1ccccc1C2=O", "GI50", "18.9 µM"],
  ["COC(=O)C1=C(C)NC(C)=C(C(=O)OC)C1c1ccccc1[N+](=O)[O-]", "GI50", "> 100 µM"]
]}

Moving on to another compound below.
**Q:** For `O=C(Nc1ccc(Oc2cccc(Cl)c2)c(Cl)c1)c1cccnc1` , write its GI50.
**A:** 2.23 µM

---

Tested on: NCI-H226 lung
Assay: NCI tumour cell line growth inhibition, 48 h; in the data active = GI50 below about 0.43 µM; inactive = the rest
Log the outcome using a class from true (1) = active, false (0) = inactive

Solved entries (count: 5):
{"columns": ["compound", "assigned category"],
 "data": [
  ["O=C1c2ccccc2-c2c1c1ccccc1c(=O)n2CCCNCCO", "false (0)"],
  ["O=C(N/N=C\\c1cc(Br)cc(Br)c1O)N/N=C/c1cc(Br)cc(Br)c1O", "false (0)"],
  ["N#CCCCCCn1c2ccccc2c2c3c(c4c5ccccc5[nH]c4c21)C(=O)N(O)C3=O", "false (0)"],
  ["Clc1ccc2c(NCCNc3nc(Cl)nc4ccccc34)ccnc2c1", "false (0)"],
  ["Nc1ccc(Sc2ccc3c4c2cccc4c(=O)n2c4ccccc4nc32)cc1", "false (0)"]
]}

**Q:** Record lookup: outcome of this test for COC(=O)C([O][Ge]([CH3])([CH3])[CH3])c1ccccc1 (centres undefined) ?
**A:** false (0)

**Q:** What classification did `CO[C@H]1/C=C/C=C/C=C/C[C@H](OC(=O)[C@@H](C)NC(=O)C2CCCCC2)[C@H](C)[C@@H](O)/C(C)=C\CCC2=CC(=O)C=C(NC(=O)C1)C2=O` end up with in this test?
**A:** true (1)

**Q:** Field: outcome | Entry: `COc1cc2cc(Oc3ccc(NC(=O)Nc4cc(C(F)(F)F)cc(C(F)(F)F)c4)cc3)c(C)nc2cc1OCCN1CCCCC1`
**A:** false (0)

**Q:** Please indicate how the test categorized `Cc1cccc(Cc2cnc(NC(=O)/C=C/c3ccco3)s2)c1` .
**A:** false (0)

---

Test system: CAKI-1 renal
Assay: NCI tumour cell line growth inhibition, 48 h
Classify as follows. Reported TGI greater than or equal to 40 µM: met. Reported TGI below: not met.

The examples below pair each entry with its known result.
{"columns": ["compound", "assigned category"],
 "data": [
  ["C=C(C)[C@@H]1CC[C@@H]2C(=CC[C@]3(C)C([C@H](C)CC/C=C(/C)C(=O)O)CC[C@@]23C)[C@@]1(C)CCC(=O)O (stereo not given in full)", "met"],
  ["O=C(Nc1ccc(I)cc1F)c1cc(F)ccc1O", "not met"],
  ["CC1CN=C(N(C(=O)Nc2ccccc2)C2CCCCC2)S1 (stereo not given)", "not met"],
  ["O=C(CSCC(=O)N/N=C\\c1cccc(Br)c1)N/N=C\\c1cccc(Br)c1", "not met"],
  ["COC(=O)C([O][Ge]([CH3])([CH3])[CH3])c1ccccc1 (stereo not given)", "met"],
  ["N#Cc1nc(-c2ccccn2)c(-c2ccccn2)nc1C#N", "not met"]
]}

**Q:** Determine whether measured TGI meets or exceeds 40 µM for `O=C(Nc1ccc(Oc2cccc(Cl)c2)c(Cl)c1)c1cccnc1`
**A:** not met

**Q:** Entry COc1cccc(C2N3CCCCC3[C@@H]3c4[nH]c5ccccc5c4CCN23)c1OC (stereo not given in full) : is its TGI no less than 40 µM?
**A:** not met

**Q:** Exam item: decide whether the reported TGI for `COc1cc(C)c(S(=O)(=O)N(CCCN)OCCCN)c(C)c1C` is at least 40 µM.
**A:** met

---

Tested on: SNB-75 CNS
Assay: NCI tumour cell line growth inhibition, 48 h
Known TGI of a selection of compounds
Write it as a number; the unit nM goes unstated.

{"columns": ["smi", "unit text", "TGI"],
 "data": [
  ["CCN(CC)Cc1cc(Nc2c3ccc(Cl)cc3nc3c(C)cccc23)ccc1O", "nM", 2840]
]}

With those in mind, consider the next compound.
**Q:** Dear colleague, please send me the reported TGI for `COc1cc2cc(C(=O)N3C[C@H](CCl)c4c3cc(O)c3ccccc43)[nH]c2c(OC)c1OC` when you can.
**A:** 449

---

Tested on: CAKI-1 renal
Experiment: NCI tumour cell line growth inhibition, 48 h
measure name: TGI

// worked examples, TGI included
{"columns": ["compound", "target", "TGI"],
 "data": [
  ["NC(=O)COc1ccc(Br)cc1Br", "CAKI-1 renal", "> 100 µM"],
  ["NC(=O)c1nnc2c(F)cccc2c1N", "CAKI-1 renal", "> 100 µM"],
  ["Cc1cnc2cc(Cl)ccc2c1SCC(=O)O", "CAKI-1 renal", "> 100 µM"]
]}

**Q:** Specify TGI for `O=C(N(C1=CCCC1)N(c1ccccc1)c1ccccc1)C(F)(F)F` and stop.
**A:** 80.4 µM

**Q:** Input `Cc1cccc2c1C(=O)/C(=C/c1ccccc1C(=O)O)C2` , output reported TGI.
**A:** > 100 µM

**Q:** Dear colleague, please send me the reported TGI for `Fc1ccc(-c2ncn(C3CCNCC3)c2-c2ccnc(Oc3ccc(Oc4ccccc4)cc3)n2)cc1` when you can.
**A:** 7.74 µM

**Q:** Supply measured TGI of N#CC(N)(C(=O)C(=O)NCCCNC(=O)C(=O)C(N)(C#N)c1ccc(Cl)cc1)c1ccc(Cl)cc1 (centres undefined) in your reply.
**A:** > 100 µM

**Q:** Give the value of TGI reported for the following: CC(=O)OCC12C(OC(C)=O)C[C@@H](C)C3(CC(c4ccoc4)OC3=O)C1CCC(OC(C)=O)C21CO1 (some centres undefined)
**A:** > 100 µM

**Q:** Give a short answer stating reported TGI for `N#CCCCCCn1c2ccccc2c2c3c(c4c5ccccc5[nH]c4c21)C(=O)N(O)C3=O` .
**A:** 4.01 µM
